Tested on: HCoV-229E
Design: species or system Huh-7; HTS, protection from HCoV-229E induced cell death, luminescent cell viability (CellCounting-Lite 2.0), inhibition rate
Details: 24 h post infection, 1 h compound pre-incubation; 10 µM; inhibitor
Among all 3,300 compounds or so, about 95 (3%) showed an effect of 50% or more. Many of the other results were omitted from the sample, so strong results are more common in it than they were.
229E Inhibition rate by entry:
Numeric answer only, unit % assumed.

Below, 10 molecules whose answers are already recorded.
// query So what does the record say about 229E Inhibition rate for C[C@H](O)[C@H](O)C1=Nc2c(nc(N)[nH]c2=O)NC1 [7,8-Dihydro-L-biopterin] ?
// result 24.5

// query So what does the record say about 229E Inhibition rate for O=C(O)Cc1cccc(O)c1 [3-Hydroxyphenylacetic acid] ?
// result 11

// query So what does the record say about 229E Inhibition rate for COc1c(/C=C/C(=O)c2ccc(O)cc2)ccc(O)c1CC=C(C)C [Licochalcone C] ?
// result 5

// query So what does the record say about 229E Inhibition rate for COc1ccc([C@H]2OC[C@H]3[C@@H]2CO[C@H]3c2ccc(O[C@@H]3O[C@H](CO)[C@@H](O)[C@H](O)[C@H]3O)c(OC)c2)cc1OC [Phillyrin] ?
// result 0

// query So what does the record say about 229E Inhibition rate for CCCCCCCCCCCCCCCC(=O)OC[C@H](CO)OC(=O)CCCCCCCCCCCCCCC [1,2-Dipalmitoyl-sn-glycerol] ?
// result 6

// query So what does the record say about 229E Inhibition rate for Oc1ccc(CCc2cc(O)cc(O)c2)cc1 [Dihydroresveratrol] ?
// result 10.7

// query So what does the record say about 229E Inhibition rate for COc1cc(/C=C/C(=O)OC[C@H]2O[C@H](O[C@]3(CO)O[C@H](CO)[C@@H](O)[C@@H]3OC(=O)/C=C/c3cc(OC)c(OC)c(OC)c3)[C@H](O)[C@@H](O)[C@@H]2O)cc(OC)c1O [Tenuifoliside C] ?
// result 19.9

// query So what does the record say about 229E Inhibition rate for CC(C)=C/C=C1\O[C@@H]2CC(C)=CC(=O)[C@@H]2[C@]1(C)O [Bisabolangelone] ?
// result 30

// query So what does the record say about 229E Inhibition rate for COc1cc2c(cc1OC)[C@@H](Cc1ccc(Oc3cc(C[C@@H]4c5cc(OC)c(OC)cc5CCN4C)ccc3O)cc1)N(C)CC2 [Dauricine] ?
// result 3.6

// query So what does the record say about 229E Inhibition rate for C[C@@H]1CC[C@@]2(OC1)O[C@H]1C[C@H]3[C@@H]4CC[C@H]5C[C@@H](O)CC[C@]5(C)[C@H]4CC[C@]3(C)[C@H]1[C@@H]2C [Tigogenin] ?
// result 11

New cases:
// query So what does the record say about 229E Inhibition rate for C[C@@H]1C(=O)O[C@H]2C[C@@]34[C@H]5C[C@@H](C(C)(C)C)[C@]36[C@@H](OC(=O)[C@@H]6O)O[C@@]4(C(=O)O5)[C@]21O [Ginkgolide A] ?
// result 11.6

// query So what does the record say about 229E Inhibition rate for CCCCCCCCCCCCCCCc1cc(O)cc(O)c1 [5-Pentadecylresorcinol] ?
// result 51.7

// query So what does the record say about 229E Inhibition rate for C[C@@H](CO[C@@H]1O[C@H](CO)[C@@H](O)[C@H](O)[C@H]1O)[C@@H]1CC[C@@]2(CC[C@]3(C)[C@H](CC[C@@H]4[C@@]5(C)CC[C@H](O[C@@H]6O[C@H](CO)[C@@H](O)[C@H](O)[C@H]6O[C@@H]6OC[C@@H](O)[C@H](O)[C@H]6O)[C@@](C)(CO[C@@H]6O[C@H](CO)[C@@H](O)[C@H](O)[C@H]6O)[C@@H]5CC[C@]43C)[C@H]2O)CO1 [Hosenkoside M] ?
// result 10.1
